half-life at 1 μM overview
experiment: Liver microsomal stability, mouse; format: in vitro ADME; settings: mouse liver microsomes
Give the number; min is assumed, so skip it.

COc1ccc(CNC(=O)c2nc(-c3ccc4c(c3)OCO4)no2)cc1OC; 34.8

Indicate its recorded half-life at 1 μM; the compound in question is O=C(Nc1ccc(Br)cc1)c1ccn(Cn2cc([N+](=O)[O-])cn2)n1
33.1

* * *

assay: Liver microsomal stability, rat; assay type: in vitro ADME; settings: rat liver microsomes, 1 μM substrate, 0.5 mg protein/mL, 60 min
Readout Label: remaining at 1 h, 1 μM (%)
Answer in %, number only, no unit symbol.

COc1ccc(CNC(=O)c2nc(-c3ccc4c(c3)OCO4)no2)cc1OC [iCDM-17]; 11.6

From here, focus on the item given below.
Read the entry O=C(Nc1ccc(Br)cc1)c1ccn(Cn2cc([N+](=O)[O-])cn2)n1 [iCDM-34] and write its reported remaining at 1 h, 1 μM.
85.2
